Measured Ki on Ras-related C3 botulinum toxin substrate 1 (Homo sapiens) (UniProt P63000) follows.

| SMILES_STRUCTURE | EXPERIMENTAL_TARGET | Ki, nM |
| --- | --- | --- |
| Cc1ccc(C)c(N2CCN(C(=O)CCc3nc(-c4ccc(Br)cc4)no3)CC2)c1 | Ras-related C3 botulinum toxin substrate 1 (Homo sapiens) (UniProt P63000) | 280 |
| COc1ccc(-c2noc(CCC(=O)N3CCC(c4cc(C)ccc4C)CC3)n2)cc1 | Ras-related C3 botulinum toxin substrate 1 (Homo sapiens) (UniProt P63000) | 110 |
| COc1ccc(-c2noc(CCC(=O)N3CCN(c4ccccc4C(F)(F)F)CC3)n2)cc1 | Ras-related C3 botulinum toxin substrate 1 (Homo sapiens) (UniProt P63000) | 160 |
| COc1ccc(-c2noc(CCC(=O)N3CCN(c4ccccc4C)CC3)n2)cc1 | Ras-related C3 botulinum toxin substrate 1 (Homo sapiens) (UniProt P63000) | 130 |
| Cc1ccc(C)c(N2CCN(C(=O)CCc3nc(-c4ccccc4C)no3)CC2)c1 | Ras-related C3 botulinum toxin substrate 1 (Homo sapiens) (UniProt P63000) | 160 |

====

target: Ras-related C3 botulinum toxin substrate 1 (Homo sapiens) (UniProt P63000); assay: wildtype Rac1 GTP binding inhibitors, SAR follow-up, biochemical, oxadiazole analogs, multiplex bead flow cytometry (AID 2027); details: GST-Rac1 beads, Bodipy-FL-GTP binding, Ki calculated from EC50
VALUE_KIND: Ki (nM)

| SMILES_STRUCTURE | UNIT_OF_MEASUREMENT | REPORTED |
| --- | --- | --- |
| COc1ccc(-c2noc(CCC(=O)N3CCN(c4ccccc4Br)CC3)n2)cc1 | nM | 160 |
| Cc1ccc(C)c(N2CCN(C(=O)CCc3nc(-c4ccccc4Br)no3)CC2)c1 | nM | 160 |
| COc1ccccc1-c1noc(CCC(=O)N2CCN(c3cc(C)ccc3C)CC2)n1 | nM | 1410 |
| COc1ccc(-c2noc(CCC(=O)N3CCN(c4ccccc4OC)CC3)n2)cc1 | nM | 210 |
| COc1ccc(-c2noc(CCC(=O)N3CCN(c4ccccc4Cl)CC3)n2)cc1 | nM | 310 |

====

target: Ras-related C3 botulinum toxin substrate 1 (Homo sapiens) (UniProt P63000)
VALUE_KIND: Ki (nM)

| SMILES_STRUCTURE | REPORTED |
| --- | --- |
| Cc1cccc(-c2noc(CCC(=O)N3CCN(c4cc(C)ccc4C)CC3)n2)c1 | 110 |
| Cc1ccc(C)c(N2CCN(C(=O)CCc3nc(-c4cccc(C(F)(F)F)c4)no3)CC2)c1 | 230 |
| COc1ccc(-c2noc(CCC(=O)N3CCN(c4cccc(C)c4C)CC3)n2)cc1 | 120 |
| COc1ccc(-c2noc(CCCC(=O)N3CCN(c4cc(C)ccc4C)CC3)n2)cc1 | 350 |
| COc1ccc(-c2coc(CCC(=O)N3CCN(c4cc(C)ccc4C)CC3)n2)cc1 | 210 |
| Cc1ccc(C)c(N2CCN(C(=O)CCc3nc(-c4ccccc4F)no3)CC2)c1 | 170 |
| COc1ccc(-c2noc(CCC(=O)N3CCN(c4ccc(OC)cc4)CC3)n2)cc1 | 50 |
| Cc1ccc(C)c(N2CCN(C(=O)CCc3nc(-c4ccccc4C(F)(F)F)no3)CC2)c1 | 200 |
| Cc1ccc(C)c(N2CCN(C(=O)CCc3nc(-c4ccc(Cl)cc4)no3)CC2)c1 | 170 |
| COc1ccc(-c2noc(CCC(=O)N3CCN(c4ccc(C)cc4)CC3)n2)cc1 | 250 |
| COc1ccc(-c2noc(CCC(=O)N3CCN(c4cc(C)ccc4C)CC3)n2)cc1 | 470 |
| Cc1ccc(C)c(N2CCN(C(=O)CCc3nc(-c4ccc(N(C)C)cc4)no3)CC2)c1 | 260 |
| Cc1ccc(-c2noc(CCC(=O)N3CCN(c4cc(C)ccc4C)CC3)n2)cc1 | 300 |
| COc1cccc(-c2noc(CCC(=O)N3CCN(c4cc(C)ccc4C)CC3)n2)c1 | 570 |
| COc1ccc(-c2noc(CCC(=O)N3CCN(c4ccc(Br)cc4)CC3)n2)cc1 | 20 |
| Cc1ccc(C)c(N2CCN(C(=O)CCc3nc(-c4cccc(F)c4)no3)CC2)c1 | 140 |
